biological target: p110δ/p85α (Homo sapiens); assay: Transcreener KINASE Assay, kinase inhibition of p110δ/p85α; conditions: read-out: PI3Kδ IC50
Sequence (O00329 whole entry): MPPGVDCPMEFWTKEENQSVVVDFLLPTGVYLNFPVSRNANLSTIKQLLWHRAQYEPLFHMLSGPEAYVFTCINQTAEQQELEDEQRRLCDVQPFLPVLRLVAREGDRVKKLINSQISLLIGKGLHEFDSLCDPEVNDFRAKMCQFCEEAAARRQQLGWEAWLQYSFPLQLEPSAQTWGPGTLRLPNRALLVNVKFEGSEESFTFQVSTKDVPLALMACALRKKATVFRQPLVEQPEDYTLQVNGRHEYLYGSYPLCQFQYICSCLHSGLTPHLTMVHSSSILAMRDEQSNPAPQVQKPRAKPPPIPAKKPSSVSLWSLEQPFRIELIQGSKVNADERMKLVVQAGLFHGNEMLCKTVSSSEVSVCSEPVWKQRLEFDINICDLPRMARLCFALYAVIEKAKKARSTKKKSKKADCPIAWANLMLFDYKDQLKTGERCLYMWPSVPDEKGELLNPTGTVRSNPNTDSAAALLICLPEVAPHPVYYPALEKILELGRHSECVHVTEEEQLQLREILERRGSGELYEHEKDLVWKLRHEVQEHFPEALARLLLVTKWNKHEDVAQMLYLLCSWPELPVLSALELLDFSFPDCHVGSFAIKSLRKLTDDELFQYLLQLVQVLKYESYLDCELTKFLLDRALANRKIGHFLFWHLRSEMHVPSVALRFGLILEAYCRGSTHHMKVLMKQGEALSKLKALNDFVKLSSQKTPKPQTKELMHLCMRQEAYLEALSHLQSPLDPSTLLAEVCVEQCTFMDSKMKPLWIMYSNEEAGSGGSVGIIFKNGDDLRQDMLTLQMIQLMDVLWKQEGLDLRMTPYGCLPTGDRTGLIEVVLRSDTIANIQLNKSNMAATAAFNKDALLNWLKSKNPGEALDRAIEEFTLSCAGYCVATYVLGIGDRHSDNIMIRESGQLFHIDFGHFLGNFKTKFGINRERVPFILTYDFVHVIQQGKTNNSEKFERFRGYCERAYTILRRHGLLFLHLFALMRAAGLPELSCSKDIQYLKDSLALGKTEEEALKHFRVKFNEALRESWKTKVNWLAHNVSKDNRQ
Sequence (P27986 whole entry partner): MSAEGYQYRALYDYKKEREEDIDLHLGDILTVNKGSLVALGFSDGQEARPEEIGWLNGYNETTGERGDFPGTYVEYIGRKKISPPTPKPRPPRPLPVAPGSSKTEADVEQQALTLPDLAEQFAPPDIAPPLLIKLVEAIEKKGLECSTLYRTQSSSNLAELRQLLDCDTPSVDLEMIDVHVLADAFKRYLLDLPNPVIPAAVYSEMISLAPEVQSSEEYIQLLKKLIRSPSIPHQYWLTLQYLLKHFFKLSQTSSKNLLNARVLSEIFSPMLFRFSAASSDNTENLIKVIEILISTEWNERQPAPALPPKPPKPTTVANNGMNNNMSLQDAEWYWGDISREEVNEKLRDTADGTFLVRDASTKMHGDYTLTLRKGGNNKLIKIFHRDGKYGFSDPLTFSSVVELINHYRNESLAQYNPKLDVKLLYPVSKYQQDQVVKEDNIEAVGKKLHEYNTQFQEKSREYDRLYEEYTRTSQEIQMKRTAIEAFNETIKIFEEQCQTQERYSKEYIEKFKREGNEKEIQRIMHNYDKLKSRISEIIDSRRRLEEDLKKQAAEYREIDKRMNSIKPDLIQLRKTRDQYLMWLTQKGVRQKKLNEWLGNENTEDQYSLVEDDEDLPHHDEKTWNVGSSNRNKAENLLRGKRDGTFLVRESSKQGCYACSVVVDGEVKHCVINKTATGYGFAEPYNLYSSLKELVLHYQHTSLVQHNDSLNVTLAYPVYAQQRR
pIC50: −log10 of the molar value.
# pIC50 per entry
property-measured: pIC50

{"molecule": "Cc1nc(N)nc(N2C[C@H](C)C2c2nn3ccc(Cl)c3c(=O)n2-c2ccccc2)c1C#N (stereo partly shown) [Compound 437]", "property-measured": "pIC50", "numeric-result": 9.00}
{"molecule": "COc1ncc(-c2c[nH]c3ncnc(N4CC[C@H]4c4nn5ccc(Cl)c5c(=O)n4-c4ccccc4)c23)cn1 [Compound 100]", "property-measured": "pIC50", "numeric-result": 9.00}
{"molecule": "CC(Nc1ncnc(N)c1C#N)c1cc2ccc(Cl)n2c(=O)n1-c1ccccc1 (stereo not shown) [Compound 125]", "property-measured": "pIC50", "numeric-result": 9.00}
{"molecule": "CC(=O)c1cnc(N)nc1N1C[C@H](C)[C@H]1c1nn2ccc(C(F)(F)F)c2c(=O)n1-c1ccccc1 [Compound 489]", "property-measured": "pIC50", "numeric-result": 8.52}

* * *

IC50, p110γ (Homo sapiens, UniProt P48736), per-entry values.

{"molecule": "N#Cc1cnc(N)nc1N1CCC[C@H]1c1nn2ccc(Cl)c2c(=O)n1C1CCC1 [Compound 376]", "IC50 / nM": 26}
{"molecule": "N#Cc1c[nH]c2ncnc(N3CC[C@H]3c3nn4ccc(Br)c4c(=O)n3-c3ccccc3)c12 [Compound 55]", "IC50 / nM": 67}
{"molecule": "O=c1c2c(Cl)ccn2nc([C@@H]2CCCN2c2ncnc3[nH]cnc23)n1-c1ccncn1 [Compound 344]", "IC50 / nM": 81}

* * *

target: p110β/p85α (Homo sapiens); experiment: Transcreener KINASE Assay, kinase inhibition of p110β/p85α; format: biochemical; conditions: 1 uM test compound
Sequence (P42338 whole entry): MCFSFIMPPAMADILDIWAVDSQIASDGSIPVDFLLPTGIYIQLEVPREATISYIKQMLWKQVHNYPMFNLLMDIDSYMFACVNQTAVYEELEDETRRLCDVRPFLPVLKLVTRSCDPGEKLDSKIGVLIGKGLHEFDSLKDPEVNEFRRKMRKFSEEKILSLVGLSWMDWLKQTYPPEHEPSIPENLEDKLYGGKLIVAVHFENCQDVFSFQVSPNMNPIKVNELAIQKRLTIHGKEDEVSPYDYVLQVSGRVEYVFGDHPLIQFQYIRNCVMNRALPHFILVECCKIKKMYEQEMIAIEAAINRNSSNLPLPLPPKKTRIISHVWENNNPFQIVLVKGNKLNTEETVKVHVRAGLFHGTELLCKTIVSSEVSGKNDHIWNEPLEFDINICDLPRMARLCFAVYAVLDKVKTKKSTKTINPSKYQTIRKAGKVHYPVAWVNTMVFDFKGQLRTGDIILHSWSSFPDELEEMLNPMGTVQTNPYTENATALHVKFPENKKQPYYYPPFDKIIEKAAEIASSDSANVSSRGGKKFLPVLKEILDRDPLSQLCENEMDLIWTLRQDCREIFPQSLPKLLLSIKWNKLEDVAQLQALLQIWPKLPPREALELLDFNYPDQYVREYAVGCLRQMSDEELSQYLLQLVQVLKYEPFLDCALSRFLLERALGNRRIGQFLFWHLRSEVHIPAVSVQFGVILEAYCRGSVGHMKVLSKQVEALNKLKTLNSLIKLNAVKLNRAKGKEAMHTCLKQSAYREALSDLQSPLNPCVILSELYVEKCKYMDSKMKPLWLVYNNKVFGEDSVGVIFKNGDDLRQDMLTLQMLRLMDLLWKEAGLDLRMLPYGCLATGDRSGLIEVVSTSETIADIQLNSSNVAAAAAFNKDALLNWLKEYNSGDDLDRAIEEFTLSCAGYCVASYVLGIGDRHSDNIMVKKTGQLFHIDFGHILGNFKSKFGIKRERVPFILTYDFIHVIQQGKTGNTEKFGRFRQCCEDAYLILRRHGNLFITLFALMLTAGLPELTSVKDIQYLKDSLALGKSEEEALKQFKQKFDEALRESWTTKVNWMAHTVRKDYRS
Sequence (P27986 2-724 partner): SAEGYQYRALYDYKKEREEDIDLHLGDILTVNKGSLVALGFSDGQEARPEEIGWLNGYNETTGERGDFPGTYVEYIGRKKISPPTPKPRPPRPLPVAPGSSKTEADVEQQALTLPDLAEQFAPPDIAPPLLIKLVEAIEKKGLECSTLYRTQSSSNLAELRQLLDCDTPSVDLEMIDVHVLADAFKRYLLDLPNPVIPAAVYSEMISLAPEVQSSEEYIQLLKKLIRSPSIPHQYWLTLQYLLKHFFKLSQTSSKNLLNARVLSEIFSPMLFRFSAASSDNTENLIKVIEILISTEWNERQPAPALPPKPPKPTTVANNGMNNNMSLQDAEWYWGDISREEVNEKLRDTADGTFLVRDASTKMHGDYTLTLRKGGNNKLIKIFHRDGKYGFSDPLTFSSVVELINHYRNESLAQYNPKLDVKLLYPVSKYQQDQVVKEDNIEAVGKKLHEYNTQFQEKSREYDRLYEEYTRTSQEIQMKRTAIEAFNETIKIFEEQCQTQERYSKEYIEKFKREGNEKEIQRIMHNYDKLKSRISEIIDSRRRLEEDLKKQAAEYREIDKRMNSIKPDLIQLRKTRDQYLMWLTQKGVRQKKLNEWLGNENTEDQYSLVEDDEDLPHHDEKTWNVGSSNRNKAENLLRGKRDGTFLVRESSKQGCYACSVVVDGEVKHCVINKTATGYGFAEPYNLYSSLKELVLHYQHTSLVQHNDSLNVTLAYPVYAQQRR
Mark NO for PI3Kβ IH % @ 1 uM values under 20%, and YES for everything at or above.

{"molecule": "CC(Nc1ncnc(N)c1C#N)c1cc2cccn2c(=O)n1-c1ccccc1 (stereo not shown) [Compound 120]", "class": "YES"}
{"molecule": "CC(=O)c1c[nH]c2ncnc(N3CC(=O)C[C@H]3c3nn4ccc(Cl)c4c(=O)n3-c3ccccc3)c12 [Compound 402]", "class": "YES"}
{"molecule": "O=c1c2c(Cl)ccn2nc([C@@H]2C[C@@H](F)CN2c2ncnc3[nH]cnc23)n1-c1ccccc1 [Compound 47]", "class": "YES"}
{"molecule": "O=c1c2c(Cl)ccn2nc([C@@H]2C[S+]([O-])CN2c2ncnc3[nH]cnc23)n1-c1ccccc1 (stereo partly shown) [Compound 293]", "class": "YES"}
{"molecule": "O=c1c2c(CO)ccn2nc([C@@H]2CCCN2c2ncnc3[nH]cnc23)n1-c1ccccc1 [Compound 177]", "class": "NO"}
{"molecule": "CC(=O)c1cnc(N)nc1N1CC[C@H]1c1nn2ccc(F)c2c(=O)n1-c1ccccc1 [Compound 323]", "class": "NO"}
{"molecule": "O=C(c1c[nH]c2ncnc(N3CCC[C@H]3c3nn4ccc(Cl)c4c(=O)n3-c3ccccc3)c12)N1CCOCC1 [Compound 164]", "class": "YES"}
{"molecule": "C[S@+]([O-])c1c[nH]c2ncnc(N3CCC[C@H]3c3nn4ccc(Cl)c4c(=O)n3-c3ccccc3)c12 [Compound 382]", "class": "YES"}
{"molecule": "N#Cc1c[nH]c2ncnc(N3CCC[C@H]3c3nn4ccc(Cl)c4c(=O)n3-c3ccccc3)c12 [Compound 25]", "class": "YES"}
{"molecule": "COc1ccc(-c2n[nH]c3ncnc(N4CCC[C@H]4c4nn5ccc(Cl)c5c(=O)n4-c4ccccc4)c23)cn1 [Compound 109]", "class": "YES"}

* * *

biological target: p110γ (Homo sapiens, UniProt P48736); assay: Transcreener KINASE Assay, kinase inhibition of p110γ; format: biochemical; settings: 1 uM test compound
Sequence (P48736 whole entry): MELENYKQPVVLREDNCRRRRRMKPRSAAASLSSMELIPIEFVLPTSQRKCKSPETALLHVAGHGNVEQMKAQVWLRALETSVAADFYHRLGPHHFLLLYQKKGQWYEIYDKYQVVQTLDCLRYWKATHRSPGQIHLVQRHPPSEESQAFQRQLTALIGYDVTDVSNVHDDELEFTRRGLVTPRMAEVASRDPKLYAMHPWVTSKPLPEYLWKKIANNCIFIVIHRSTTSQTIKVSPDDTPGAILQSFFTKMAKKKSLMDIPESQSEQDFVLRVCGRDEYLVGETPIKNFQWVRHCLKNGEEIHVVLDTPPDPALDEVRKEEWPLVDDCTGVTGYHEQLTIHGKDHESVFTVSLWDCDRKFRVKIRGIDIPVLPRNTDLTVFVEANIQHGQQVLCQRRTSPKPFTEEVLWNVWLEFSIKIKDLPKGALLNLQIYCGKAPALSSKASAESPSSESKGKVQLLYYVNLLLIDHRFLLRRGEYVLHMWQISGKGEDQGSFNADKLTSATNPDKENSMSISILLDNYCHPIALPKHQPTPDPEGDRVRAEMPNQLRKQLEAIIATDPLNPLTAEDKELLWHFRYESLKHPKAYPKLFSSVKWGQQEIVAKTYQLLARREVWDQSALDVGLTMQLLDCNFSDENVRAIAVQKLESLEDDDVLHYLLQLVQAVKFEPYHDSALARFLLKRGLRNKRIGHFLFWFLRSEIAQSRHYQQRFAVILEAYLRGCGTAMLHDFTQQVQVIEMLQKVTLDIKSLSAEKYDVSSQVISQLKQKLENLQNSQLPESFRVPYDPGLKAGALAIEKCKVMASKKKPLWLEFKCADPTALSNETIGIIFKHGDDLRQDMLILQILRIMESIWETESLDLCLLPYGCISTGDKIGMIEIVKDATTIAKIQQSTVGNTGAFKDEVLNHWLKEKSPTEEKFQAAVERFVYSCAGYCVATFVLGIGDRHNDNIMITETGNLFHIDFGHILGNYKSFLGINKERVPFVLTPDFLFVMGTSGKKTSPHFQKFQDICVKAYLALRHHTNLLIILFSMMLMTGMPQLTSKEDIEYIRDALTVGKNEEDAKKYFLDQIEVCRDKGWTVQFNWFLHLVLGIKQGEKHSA
property-measured: PI3Kγ IH % @ 1 uM (%)

{"compound": "CC(=O)c1c[nH]c2ncnc(NC(C)c3cn4ccc(Cl)c4c(=O)n3-c3ccccc3)c12 (centres unmarked)", "comparison-operator": ">", "numeric-result": 100}
{"compound": "N#Cc1c[nH]c2ncnc(N3C[C@@H](F)C[C@H]3c3nn4ccc(Cl)c4c(=O)n3-c3cccc(F)c3)c12", "comparison-operator": ">", "numeric-result": 100}
{"compound": "O=c1c2c(Cl)ccn2nc([C@@H]2CCCCN2c2ncnc3[nH]cnc23)n1-c1ccccc1", "comparison-operator": "=", "numeric-result": 65.3}
{"compound": "O=c1c2c(Cl)ccn2nc([C@@H]2CCCN2c2ncnc3[nH]cnc23)n1Cc1ncccn1", "comparison-operator": "=", "numeric-result": 64.0}
{"compound": "CC(Nc1ncnc2[nH]cc(C#N)c12)c1cn2cccc2c(=O)n1-c1ccccc1 (centres unmarked)", "comparison-operator": "=", "numeric-result": 78.6}
{"compound": "CC(=O)c1c[nH]c2ncnc(N3CCC[C@H]3c3nn4ccc(Cl)c4c(=O)n3-c3ccccc3)c12", "comparison-operator": "=", "numeric-result": 92.2}
{"compound": "N#Cc1c[nH]c2ncnc(N3CC[C@H]3c3nn4ccc(F)c4c(=O)n3-c3ccccc3)c12", "comparison-operator": "=", "numeric-result": 68.1}
{"compound": "COCCNC(=O)c1c[nH]c2ncnc(N3CC[C@H]3c3nn4ccc(Cl)c4c(=O)n3-c3ccccc3)c12", "comparison-operator": "=", "numeric-result": 59.9}
{"compound": "N#Cc1cnc(N)nc1N1CCC[C@H]1c1nn2ccc(Cl)c2c(=O)n1-c1ccc(F)cc1", "comparison-operator": "=", "numeric-result": 96.8}
{"compound": "C[C@H]1CN(c2nc(N)ncc2C#N)[C@@H]1c1nn2ccc(Cl)c2c(=O)n1-c1ccccn1", "comparison-operator": "=", "numeric-result": 76.1}
{"compound": "CC(Nc1ncnc2[nH]cc(S(C)(=O)=O)c12)c1cn2ccc(Cl)c2c(=O)n1-c1ccccc1 (centres unmarked)", "comparison-operator": ">", "numeric-result": 100}
{"compound": "N#Cc1c[nH]c2ncnc(N3CC[C@H]3c3nn4ccc(Br)c4c(=O)n3-c3ccccc3)c12", "comparison-operator": "=", "numeric-result": 99.5}
{"compound": "CC(=O)c1cnc(N)nc1N1CC[C@H]1c1nn2ccc(C#N)c2c(=O)n1-c1ccccc1", "comparison-operator": ">", "numeric-result": 100}
{"compound": "N#Cc1c[nH]c2ncnc(N3C[C@@H](C#N)C[C@H]3c3nn4ccc(Cl)c4c(=O)n3-c3cccc(F)c3)c12", "comparison-operator": ">", "numeric-result": 100}

* * *

target: p110β/p85α (Homo sapiens); test: Transcreener KINASE Assay, kinase inhibition of p110β/p85α; details: read-out: PI3Kβ IC50
pIC50: −log10 of the molar value.
property-measured: pIC50

{"molecule": "CC(C)Cn1c([C@@H]2CCCN2c2ncnc3[nH]cc(C#N)c23)nn2ccc(Cl)c2c1=O", "property-measured": "pIC50", "numeric-result": 6.60}
{"molecule": "N#Cc1c[nH]c2ncnc(N3C[C@@H](C#N)C[C@H]3c3nn4ccc(Cl)c4c(=O)n3-c3cccc(F)c3)c12", "property-measured": "pIC50", "numeric-result": 7.46}
{"molecule": "N#C[C@H]1C[C@@H](c2nn3ccc(Cl)c3c(=O)n2-c2ccc(F)cc2)N(c2ncnc3[nH]cnc23)C1", "property-measured": "pIC50", "numeric-result": 6.99}
{"molecule": "CC(Nc1ncnc2[nH]cc(C#N)c12)c1cc2ccc(Cl)n2c(=O)n1-c1ccccc1 (centres unmarked)", "property-measured": "pIC50", "numeric-result": 7.66}
{"molecule": "Cc1nc(N)nc(N2C[C@H](C)[C@H]2c2nn3ccc(F)c3c(=O)n2-c2ccc(F)cc2)c1C#N", "property-measured": "pIC50", "numeric-result": 7.30}
{"molecule": "N#Cc1c[nH]c2ncnc(N3C[C@H](O)C[C@H]3c3nn4ccc(Cl)c4c(=O)n3-c3ccccc3)c12", "property-measured": "pIC50", "numeric-result": 6.66}
{"molecule": "Nc1ncc(-c2n[nH]c3ncnc(N4CCC[C@H]4c4nn5ccc(Cl)c5c(=O)n4-c4ccccc4)c23)cn1", "property-measured": "pIC50", "numeric-result": 7.77}
{"molecule": "Cc1ccn2cc(C(C)Nc3ncnc4[nH]cc(C#N)c34)n(-c3ccccc3)c(=O)c12 (centres unmarked)", "property-measured": "pIC50", "numeric-result": 6.65}
{"molecule": "C[C@H]1CN(c2nc(N)nc(N)c2C#N)[C@@H]1c1nn2ccc(Cl)c2c(=O)n1-c1ccccc1", "property-measured": "pIC50", "numeric-result": 7.11}
{"molecule": "Nc1ccc(-c2c[nH]c3ncnc(N4CC[C@H]4c4nn5ccc(F)c5c(=O)n4-c4ccccc4)c23)cn1", "property-measured": "pIC50", "numeric-result": 6.48}
{"molecule": "NC(=O)c1c[nH]c2ncnc(N3CCC[C@H]3c3nn4ccc(Cl)c4c(=O)n3-c3ccccc3)c12", "property-measured": "pIC50", "numeric-result": 7.44}
